System: Human BCMA (human) (UniProt Q02223)
Assay procedure: SPR, IgG on chip, huBCMA analyte
pKd: −log10 of the molar value.
Please use yes (1) whenever pKd is not below 10, and no (0) whenever it is.

Worked examples, 2 binders total:
Binder | Class
C01_Rd4_6nM_C09 (antibody, V domains shown, IgG) VH: EVQLLESGGGLVQPGGSLRLSCAASGFTFSSYPMSWVRQAPGKGLEWVSATVGSGGSIGYADSVKGRFTISRDNSKNTLYLQMNSLRAEDTAVYYCARYWPMDSWGQGTLVTVSS VL: EIVLTQSPGTLSLSPGERATLSCACSQSVSSTYLAWYQQKPGQAPRLLIYDASSRAPGIPDRFSGSGSGTDFTLTISRLEPEDFAVYYCQQYSAWPLTFGQGTKVEIK | no (0)
COMBO_Rd4_6nM_C08 (antibody, V domains shown, IgG) VH: EVQLLESGGGLVQPGGSLRLSCAASGFTFSSYPMSWVRQAPGKGLEWVSAIGGSGTWTYYADSVKGRFTISRDNSKNTLYLQMNSLRAEDTAVYYCARYWPMDSWGQGTLVTVSS VL: EIVLTQSPGTLSLSPGERATLSCRASQSVSSSYLAWYQQKPGQAPRLLMYDASIRATGIPDRFSGSGSGTDFTLTISRLEPEDFAVYYCQQYQKWPLTFGQGTKVEIK | yes (1)

# evaluate next
Query block: Answer whether pKd of C01_Rd4_0.6nM_C09 (antibody, V domains shown, IgG) VH: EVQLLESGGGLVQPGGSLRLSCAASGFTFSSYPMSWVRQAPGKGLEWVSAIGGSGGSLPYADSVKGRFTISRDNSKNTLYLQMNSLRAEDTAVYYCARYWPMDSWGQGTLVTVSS VL: EIVLTQSPGTLSLSPGERATLSCRASQSVSSLFLAWYQQKPGQAPRLLIYDASSRAPGIPDRFSGSGSGTDFTLTISRLEPEDFAVYYCQQYSAWPLTFGQGTKVEIK is greater than or equal to 10.
Result block: no (0)
